System: T1, Human Ang-2FD-hFc (human)
T1 construct: Order of the pieces follows the name (Ang-2FD, then hFc); also called Dimeric Human Ang-2FD; human Ang-2FD protein conjugated to human IgG
Experimental Protocol: ELISA, 16.67 nM antibody + 2 nM human Ang-2FD-hFc, on coated hTie-2-mFc (competitor)
Outcome Measure: Percent Blocking of Ang-2FD Binding to Tie-2 (%)
Answers are plain numbers, in %.

These solved cases illustrate the format of a correct answer.
Binder	Observed Measurement
H1H695P (antibody, V domains shown, Fully human antibody, human IgG1) VH: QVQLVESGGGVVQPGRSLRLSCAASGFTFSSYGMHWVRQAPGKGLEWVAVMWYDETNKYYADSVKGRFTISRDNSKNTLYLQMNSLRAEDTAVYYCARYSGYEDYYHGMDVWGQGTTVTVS VL: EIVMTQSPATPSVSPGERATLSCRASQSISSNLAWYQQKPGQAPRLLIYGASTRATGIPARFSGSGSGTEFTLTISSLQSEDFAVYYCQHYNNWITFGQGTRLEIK	98.4
H1H706P (antibody, V domains shown, Fully human antibody, human IgG1) VH: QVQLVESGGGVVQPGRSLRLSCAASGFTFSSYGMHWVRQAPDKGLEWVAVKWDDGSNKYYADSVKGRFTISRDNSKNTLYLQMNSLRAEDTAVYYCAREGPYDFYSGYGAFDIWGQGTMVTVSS VL: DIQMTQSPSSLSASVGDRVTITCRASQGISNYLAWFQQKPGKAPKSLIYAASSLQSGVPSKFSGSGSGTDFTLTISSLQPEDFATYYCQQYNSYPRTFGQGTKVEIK	97.1

Kindly review the next binder as well.
Qu. Provide Percent Blocking of Ang-2FD Binding to Tie-2 value for the following binder: H1H693P (antibody, V domains shown, Fully human antibody, human IgG1) VH: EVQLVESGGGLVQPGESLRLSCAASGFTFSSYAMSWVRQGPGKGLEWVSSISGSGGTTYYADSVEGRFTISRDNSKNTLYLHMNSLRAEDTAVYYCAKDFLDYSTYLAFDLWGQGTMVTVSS VL: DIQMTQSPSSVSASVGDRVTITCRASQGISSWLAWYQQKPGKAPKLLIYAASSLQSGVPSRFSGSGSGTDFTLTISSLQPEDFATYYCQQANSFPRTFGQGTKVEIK
Ans. 73.9
